Each recorded value in this set is attributed to patent US11780830B2.

Form field: IC50 (one value per entry).
Target: recombinant human MAO-B (monoamine oxidase-B) (Homo sapiens)
Construct: purchased Sigma-Aldrich
Sequence (P27338 1-520): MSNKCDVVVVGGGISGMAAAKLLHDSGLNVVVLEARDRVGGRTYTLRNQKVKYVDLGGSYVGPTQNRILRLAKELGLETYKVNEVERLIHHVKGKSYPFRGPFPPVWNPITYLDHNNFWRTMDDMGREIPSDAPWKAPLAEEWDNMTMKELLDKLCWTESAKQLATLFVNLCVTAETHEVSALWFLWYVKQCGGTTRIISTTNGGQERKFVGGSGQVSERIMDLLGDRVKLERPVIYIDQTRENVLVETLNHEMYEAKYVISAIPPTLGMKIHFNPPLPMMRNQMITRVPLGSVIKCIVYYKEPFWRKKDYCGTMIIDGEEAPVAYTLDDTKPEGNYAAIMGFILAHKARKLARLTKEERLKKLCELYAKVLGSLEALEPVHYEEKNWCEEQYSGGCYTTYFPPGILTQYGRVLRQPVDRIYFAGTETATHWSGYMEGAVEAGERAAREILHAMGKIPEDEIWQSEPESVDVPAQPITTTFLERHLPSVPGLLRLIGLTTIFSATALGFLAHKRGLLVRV
Test: Activity on recombinant human MAO-B, method similar to the VAP-1 assay
Format: biochemical
Details: substrate 1 mM benzylamine; read-out: Inhibitory Activity (IC50, nM) MAO-B
Structures can show the parent of a compound that is named as a salt.
outcome-measure: IC50 (nM)

| compound | unit-string | meas-value |
| --- | --- | --- |
| NC/C(=C\F)Cn1ncn(Cc2ccc(-c3ccc(N)cc3)s2)c1=O [Example 166] | nM | 1300 |
| Cn1cc(-c2ccc(Cn3cnn(C/C(=C/F)CN)c3=O)s2)cn1 [Example 142] | nM | 1000 |
| NC/C(=C\F)Cn1ncn(Cc2ccc(-c3ccc(C(F)(F)F)nc3)s2)c1=O [Example 49, hydrochloride] | nM | 360 |
| NC/C(=C\F)Cn1ncn(CCc2ccc(-c3ccc4c(c3)OCO4)s2)c1=O [Example 215] | nM | 310 |
